METHOD_NOTES: Cmax in Sprague-Dawley rat plasma at 10 mg/kg, po
Assay type: ADME, organism-based
Parameters: dose 10 mg/kg, route oral
PROPERTY_NAME: Cmax (ng/mL)

INSERT INTO results (smiles_representation, property_name, quantitative_result) VALUES
  ('CCC[C@@H](CCO)Nc1nc(N)nc2c(F)cccc12', 'Cmax', 16);

----------
METHOD_NOTES: Protein binding in cynomolgus monkey plasma fraction at 5 uM after 4.5 hrs LC-MS/MS-based rapid equilibrium dialysis method
Format: ADME, cell-free, Macaca fascicularis
TEST_CONTEXT: read-out: PPB (converted)
PROPERTY_NAME: fraction unbound at 4.5 h, 5 µM

INSERT INTO assay_data (smiles_representation, property_name, result) VALUES
  ('CCC[C@@H](CCO)Nc1nc(N)nc2c(F)cccc12', 'fraction unbound at 4.5 h, 5 µM', 0.46);

----------
SYSTEM: Toll-like receptor 7 (Homo sapiens)
METHOD_NOTES: Agonist activity at human TLR7 expressed in HEK293 cells assessed as induction of receptor activation incubated for 6 hrs by NF-kappaB-luciferase reporter gene assay
Format: cell-based
PROPERTY_NAME: MEC (µM)

INSERT INTO assay_data (smiles_representation, unit_symbol, quantitative_result) VALUES
  ('CCCC[C@@H](CCO)Nc1nc(N)nc2c(F)cccc12', 'µM', 0.11),
  ('CCC[C@@H](CCO)Nc1nc(N)nc2cccc(C)c12', 'µM', 0.22),
  ('CCCC[C@@H](CCO)Nc1nc(N)nc2ccc(C)cc12', 'µM', 0.44),
  ('CC(C)C[C@@H](CCO)Nc1nc(N)nc2ccccc12', 'µM', 1.83);

----------
METHOD_NOTES: Stability in mouse hepatocytes assessed compound turnover at 1 uM after 60 mins
Type: ADME, cell-based, Hepatocyte
TEST_CONTEXT: read-out: Drug metabolism
PROPERTY_NAME: metabolised at 1 h, 1 µM (%)

INSERT INTO assay_data (smiles_representation, quantitative_result) VALUES
  ('CCC[C@@H](CCO)Nc1nc(N)nc2c(F)cccc12', 99);

----------
METHOD_NOTES: Protein binding in dog plasma fraction at 5 uM after 4.5 hrs LC-MS/MS-based rapid equilibrium dialysis method
Assay type: ADME, cell-free, Canis lupus familiaris
TEST_CONTEXT: read-out: PPB (converted)
PROPERTY_NAME: fraction unbound at 4.5 h, 5 µM

INSERT INTO assay_data (smiles_representation, quantitative_result) VALUES
  ('CCC[C@@H](CCO)Nc1nc(N)nc2c(F)cccc12', 0.59);

----------
SYSTEM: Toll-like receptor 7 (Homo sapiens)
METHOD_NOTES: Agonist activity at human TLR7 expressed in HEK293 cells assessed as induction of receptor activation incubated for 6 hrs by NF-kappaB-luciferase reporter gene assay
Format: cell-based
The reader will find reported MEC values listed item by item below.
PROPERTY_NAME: MEC

INSERT INTO assay_data (smiles_representation, result) VALUES
  ('CCC[C@@H](CCO)Nc1nc(N)nc2cc(OC)ccc12', '0.2 µM'),
  ('CCC[C@@H](CCO)Nc1nc(N)nc2ccc(F)cc12', '1.05 µM'),
  ('CCCC[C@@H](CCO)Nc1nc(N)nc2ccc(F)cc12', '1.59 µM'),
  ('CCCC[C@@H](CCO)Nc1nc(N)nc2cc(OC)ccc12', '0.16 µM'),
  ('CC[C@H](C)[C@@H](CO)Nc1nc(N)nc2ccccc12', '1.34 µM'),
  ('CCC[C@@H](CCO)Nc1nc(N)nc2cc(C)ccc12', '0.06 µM'),
  ('CCC[C@@H](CO)Nc1nc(N)nc2ccccc12', '0.46 µM'),
  ('CCCC[C@@H](CCO)Nc1nc(N)nc2cccc(F)c12', '0.34 µM'),
  ('CCC[C@@H](CCO)Nc1nc(N)nc2cccc(F)c12', '0.22 µM'),
  ('CCCC[C@@H](CCO)Nc1nc(N)nc2ccc(OC)cc12', '1.85 µM'),
  ('CCCC[C@H](CO)Nc1nc(N)nc2ccccc12', '22.5 µM'),
  ('CCC[C@@H](CCO)Nc1nc(N)nc2ccccc12', '0.2 µM');
